For each entry below, report its percent response of DMSO control value.
- protocol text: TOR pathway RTG branch CIT2 reporter changes – S. cerevisiae, GFP fusion, multiplex flow cytometry, primary screen (AID 1870);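 note: barcoded CIT2-GFP strain pooled with four other GFP strains with rapamycin as positive control; median GFP fluorescence per well over plate mean of DMSO wells so 100% = DMSO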
- run conditions: S. cerevisiae CIT2-GFP expression, 3 h, at 10 µM, stronger effect = higher value
One number for each entry, in %.

Known results for compounds:
[[record]]
compound = "CN(C)[C@@H]1C(=O)C(C(=O)NCN2CCCC2)=C(O)[C@@]2(O)C(=O)C3=C(O)c4c(O)cccc4[C@@](C)(O)C3CC12 (stereo not given in full)"
recorded_result = 112

[[record]]
compound = "Cc1ccc2[nH]c(=O)c(Cc3ccccc3)c(O)c2c1"
recorded_result = 107

[[record]]
compound = "CC(=O)[C@@]1(O)CC[C@H]2[C@@H]3CCC4=CC(=O)CC[C@]4(C)[C@H]3[C@@H](O)C[C@@]21C"
recorded_result = 94.9

[[record]]
compound = "COc1ccc(-c2c3c(=O)n(C)c(=O)n(C)c3cn2C2CCCCC2)cc1"
recorded_result = 88.2

[[record]]
compound = "Oc1ccccc1OCCOc1ccccc1OCCOc1ccccc1O"
recorded_result = 105

[[record]]
compound = "O=C(NC1CC1)C1CCN(C2CCN(C(=O)Cc3ccc(F)cc3)CC2)CC1"
recorded_result = 111

[[record]]
compound = "Cc1[nH]c2ccccc2c1C(=O)C(=O)NCc1ccco1"
recorded_result = 101

[[record]]
compound = "COC1CCN(C(=O)c2ccc(OC3CCN(Cc4ccccn4)CC3)cc2)CC1"
recorded_result = 104

[[record]]
compound = "CCOC(=O)C1=C(C)N[C@@]2(O)c3ccccc3C(=O)[C@@]12O"
recorded_result = 106


Alright, here's another compound for you.
Req: Please supply the value of reported percent response of DMSO control for the item "CSc1ccc(/C=N/N2CCN(Cc3ccc(C)cc3C)CC2)cc1"
Resp: 110
